Cited source: patent US20020111274A1

# Tested on: IPOHE Morningglory, Ivyleaf
# PROTOCOL DESCRIPTION: Postemergence herbicidal evaluation, IPOHE
# Format: in vivo, Ipomoea hederacea, (L.) Jacq.
# Set-up: scale not given here
# DETAILS: 0.032 kg/ha, postemergence spray, rated about two-three weeks after treatment
Catalogue of molecules with associated Postemergence herbicidal rating IPOHE
READOUT KIND: Postemergence herbicidal rating IPOHE

> print(dat)
                                   molecule  data.value
1  COC(=O)COc1ccccc1-n1nnc2cc(F)c(-n3c(=O)cc(C(F)(F)F)n(C)c3=O)cc21 [Example 35]         9.0
2  Cc1ccc(O)c(-n2nnc3cc(F)c(-n4c(=O)cc(C(F)(F)F)n(C)c4=O)cc32)c1 [Example 31]         4.0
3  Cc1ccc(O)cc1-n1nnc2cc(F)c(-n3c(=O)cc(C(F)(F)F)n(C)c3=O)cc21 [Example 32]         0.0
4  COc1ccc(-n2nnc3cc(F)c(-n4c(=O)cc(C(F)(F)F)n(C)c4=O)cc32)c(C)c1 [Example 24]         4.0
5  COc1ccc(Cl)cc1-n1nnc2cc(F)c(-n3c(=O)cc(C(F)(F)F)n(C)c3=O)cc21 [Example 30]         9.0
6  COC(=O)COc1ccc(C)c(-n2nnc3cc(F)c(-n4c(=O)cc(C(F)(F)F)n(C)c4=O)cc32)c1 [Example 38]         9.0
7  CCc1ccc(-n2nnc3cc(F)c(-n4c(=O)cc(C(F)(F)F)n(C)c4=O)cc32)cc1COC [Example 28]         9.0
